- System name: Lysine-specific demethylase 5B (Homo sapiens) (UniProt Q9UGL1)
- Sequence (Q9UGL1 whole entry, looked up): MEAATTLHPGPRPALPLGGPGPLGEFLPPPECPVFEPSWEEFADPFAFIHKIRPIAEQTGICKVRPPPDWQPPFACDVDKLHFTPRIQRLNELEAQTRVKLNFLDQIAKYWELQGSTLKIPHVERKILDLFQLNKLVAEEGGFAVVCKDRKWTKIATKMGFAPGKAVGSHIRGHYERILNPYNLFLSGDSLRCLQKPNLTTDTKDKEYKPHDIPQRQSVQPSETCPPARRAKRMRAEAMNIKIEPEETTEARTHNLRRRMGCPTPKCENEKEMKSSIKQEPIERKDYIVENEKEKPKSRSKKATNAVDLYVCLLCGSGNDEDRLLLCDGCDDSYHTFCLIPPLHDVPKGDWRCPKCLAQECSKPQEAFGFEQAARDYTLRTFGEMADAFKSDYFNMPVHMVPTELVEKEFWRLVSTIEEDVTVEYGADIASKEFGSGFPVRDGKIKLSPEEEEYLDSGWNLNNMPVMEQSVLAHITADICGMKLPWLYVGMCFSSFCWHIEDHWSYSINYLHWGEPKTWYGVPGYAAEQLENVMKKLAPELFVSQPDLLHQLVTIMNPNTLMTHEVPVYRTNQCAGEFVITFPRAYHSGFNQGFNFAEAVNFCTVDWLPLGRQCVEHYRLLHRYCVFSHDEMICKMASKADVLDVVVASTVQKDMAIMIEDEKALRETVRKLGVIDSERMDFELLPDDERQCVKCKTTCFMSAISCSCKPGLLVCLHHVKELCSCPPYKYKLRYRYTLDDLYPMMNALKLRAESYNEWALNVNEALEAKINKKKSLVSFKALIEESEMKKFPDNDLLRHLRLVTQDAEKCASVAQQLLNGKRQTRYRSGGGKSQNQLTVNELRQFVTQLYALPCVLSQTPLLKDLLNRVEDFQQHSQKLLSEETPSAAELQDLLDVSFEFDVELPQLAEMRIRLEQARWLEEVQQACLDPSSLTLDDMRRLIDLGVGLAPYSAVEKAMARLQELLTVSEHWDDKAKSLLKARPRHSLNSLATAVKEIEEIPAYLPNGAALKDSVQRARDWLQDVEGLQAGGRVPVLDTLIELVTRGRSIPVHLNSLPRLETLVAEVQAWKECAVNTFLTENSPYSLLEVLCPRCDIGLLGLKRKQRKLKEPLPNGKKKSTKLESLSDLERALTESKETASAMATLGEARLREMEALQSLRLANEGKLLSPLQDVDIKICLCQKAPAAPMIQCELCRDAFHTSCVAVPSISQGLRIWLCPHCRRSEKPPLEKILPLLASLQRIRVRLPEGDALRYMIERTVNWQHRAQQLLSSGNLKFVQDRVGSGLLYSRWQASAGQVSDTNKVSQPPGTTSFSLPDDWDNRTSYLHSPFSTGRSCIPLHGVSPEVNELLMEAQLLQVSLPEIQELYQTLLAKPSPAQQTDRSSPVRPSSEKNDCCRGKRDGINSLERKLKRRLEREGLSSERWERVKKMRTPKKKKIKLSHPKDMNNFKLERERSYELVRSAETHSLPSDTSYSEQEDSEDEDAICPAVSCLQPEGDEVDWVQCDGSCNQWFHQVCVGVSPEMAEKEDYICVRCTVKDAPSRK
- Procedure details: Primary screen for KDM5B Histone Demethylases FDH-coupled qHTS; note: nearly all actives have a fitted effect of over 70% in size
- Condition: FDH-coupled NADH fluorescence (FDH is formaldehyde dehydrogenase); series mostly up to 57.7 µM
The campaign covered roughly 220,000 compounds. About 5,700 (2.6%) were called active. About 18% were inconclusive and are not listed. Calls come from the whole dose curve; as a rule, active = well fitted inhibition curve with a large enough effect; inconclusive = small, poorly fitted or top-dose-only effect; inactive = no such curve, though single readings can be large or run the other way. The entries come from a sample that favours actives as a whole.
Outcome codes: yes = active, no = inactive

INSERT INTO measurements (molecule, assigned_label) VALUES
  ('Cc1c(-c2ccc(Cl)cc2)nc2ccccc2c1C(=O)NC1CCCCCCC1', 'no'),
  ('Cc1nn2c(c1-c1ccccc1-c1ccccc1)N(C(=O)CN1CCOCC1)CCC2', 'no'),
  ('COc1ccc(NC(=O)CSc2nccn2-c2cccc(C(F)(F)F)c2)cc1', 'no'),
  ('CCOc1ccccc1CN1CCC2(CCN(C(=O)c3cccc(Cl)c3)CC2)Oc2ccccc21', 'yes'),
  ('O=C(COC(=O)CCc1c[nH]c2ccccc12)NC1CC1', 'no'),
  ('CC(C)C(=O)N1CC(=O)Nc2ccc(F)cc2C1c1ccc(F)cc1 (stereo unspecified)', 'no');
